Reported values of melting point for individual entries

>  <chemicalSmiles>
COc1cc(-c2cc3ccc(N4CCN[C@@H](C)C4)cc3oc2=O)ccc1C

>  <reportedResult>
166 to 170 °C

$$$$
>  <chemicalSmiles>
CN(C)Cc1ccc2cc(-c3nc4ccccc4s3)c(=O)oc2c1

>  <reportedResult>
171 to 176 °C

$$$$
>  <chemicalSmiles>
Cc1cn2cc(-c3cc4ccc(N5CCN(CCCF)[C@@H](C)C5)cc4oc3=O)nc2c(C)n1

>  <reportedResult>
215 to 217 °C

$$$$
>  <chemicalSmiles>
Cc1cn2cc(-c3cc4ccc(O[C@@H]5CCN(C(C)C)C5)cc4oc3=O)nc2c(C)n1

>  <reportedResult>
176 to 179 °C

$$$$
>  <chemicalSmiles>
C[C@@H]1CN(c2ccc3cc(-c4cn5cnccc5n4)c(=O)oc3c2)C[C@H](C)N1

>  <reportedResult>
250 to 252 °C

$$$$

[Q] What does the record list as melting point for "Cc1ccn2cc(-c3cc4ccc(N5CCN[C@@H](C)C5)cc4oc3=O)nc2c1" ?
[A] 234 to 244 °C

[Q] What does the record list as melting point for "Cc1cc([N+](=O)[O-])c2nc(-c3cc4ccc(N5CCN[C@@H](C)C5)cc4oc3=O)cn2c1" ?
[A] 251 to 259 °C

[Q] What does the record list as melting point for "O=c1oc2cc(OC3CCNCC3)ccc2cc1-c1nc2ccccc2o1" ?
[A] 198 to 201 °C
